tested on: DU-145 prostate; assay: NCI-60 one-dose screen, 48 h (100 = growth as untreated, 0 = no growth, -100 = all killed); details: 10 µM unless noted
The panel holds about 83,000 compounds, 20% with a hit somewhere; the sample as a whole holds those more often.
I'd appreciate it if you marked entries 1.0 when growth is lower than 80% and 0.0 when it is not.

[
  {
    "MOLECULE": "CC(C)(C)CC(C)(C)n1nnnc1C(Nc1nccs1)c1cc2cccc3ccc4cccc1c4c32 (stereo not given)",
    "CLASSIFICATION": 0.0
  },
  {
    "MOLECULE": "CC(C)(O)c1cncc(-c2ccc3ncnc(NCc4ccccc4)c3c2)c1",
    "CLASSIFICATION": 1.0
  },
  {
    "MOLECULE": "Nc1nc(N)c2c(n1)NC(c1ccc(Cl)cc1)CC(c1ccc(Nc3nc(NCCO)nc(N4CCOCC4)n3)cc1)=N2 (stereo not given)",
    "CLASSIFICATION": 0.0
  },
  {
    "MOLECULE": "C=C(C=O)[C@@H]1CC[C@]2(COC(C)=O)CC[C@]3(C)C(CC[C@@H]4[C@@]5(C)CC[C@H](OC(C)=O)C(C)(C)[C@@H]5CC[C@]43C)[C@@H]12 (stereo not given in full)",
    "CLASSIFICATION": 1.0
  },
  {
    "MOLECULE": "COc1ccc([C@@H]2[C@@H](O)C(=O)N2c2cc(OC)c(OC)c(OC)c2)cc1F",
    "CLASSIFICATION": 1.0
  },
  {
    "MOLECULE": "C=CCOc1cccc(/C=C2\\SC(=S)N(C3CC(=O)N(c4ccc(Br)cc4)C3=O)C2=O)c1 (stereo not given)",
    "CLASSIFICATION": 0.0
  },
  {
    "MOLECULE": "CN(C)C(=O)c1cc(-c2ccc3ncnc(NCc4ccccc4)c3c2)cnc1N",
    "CLASSIFICATION": 1.0
  },
  {
    "MOLECULE": "C#C[C@]1(O)CC[C@H]2[C@@H]3CC=C4c5sc(-c6cccc(O)c6)nc5CC[C@]4(C)[C@H]3CC[C@@]21C",
    "CLASSIFICATION": 1.0
  },
  {
    "MOLECULE": "Nc1ccccc1NC(=O)c1ccc(NC(=O)C/C=C/c2cccnc2)cn1",
    "CLASSIFICATION": 1.0
  },
  {
    "MOLECULE": "Clc1cccc(/C=N/Nc2nc(N/N=C/c3cccc(Cl)c3Cl)nc(N3CCCCC3)n2)c1Cl",
    "CLASSIFICATION": 1.0
  },
  {
    "MOLECULE": "O=C(c1ccc(O)c(C(=O)N2Cc3ccc(OCCC[P+](c4ccccc4)(c4ccccc4)c4ccccc4)cc3C2)c1)N1Cc2cccc(F)c2C1",
    "CLASSIFICATION": 0.0
  },
  {
    "MOLECULE": "O=C(O)c1ccc(-n2cc(CNc3cc(F)c(F)c(F)c3)c(-c3cccc(F)c3)n2)cc1",
    "CLASSIFICATION": 0.0
  },
  {
    "MOLECULE": "COc1ccc(OC)c(-c2nc(SCC(=O)c3ccc(Br)cc3)nc(Nc3ccc(S(N)(=O)=O)cc3)c2C#N)c1",
    "CLASSIFICATION": 1.0
  },
  {
    "MOLECULE": "N#Cc1cnc2ccc(-c3cnc4[nH]ncc4c3)cc2c1N1CCc2cc(F)c(Cl)cc21",
    "CLASSIFICATION": 1.0
  },
  {
    "MOLECULE": "CCO/C=N/C1=C(C#N)C(c2ccc(OC)cc2)c2sc3c(CC)cccc3c2O1 (stereo not given)",
    "CLASSIFICATION": 1.0
  },
  {
    "MOLECULE": "COc1cc2oc(-c3cccc(C(=O)N[C@@H](CC(C)C)C(=O)OC(C)(C)C)c3)cc(=O)c2c(OC)c1OC",
    "CLASSIFICATION": 1.0
  },
  {
    "MOLECULE": "C=C1CC[C@@H]2[C@](C)(CO)[C@H](O)CC[C@@]2(C)[C@@H]1C/C(O)=C1\\CCOC1=O",
    "CLASSIFICATION": 0.0
  },
  {
    "MOLECULE": "C=CCn1c(SCC(=O)Nc2ccc(C(=O)/C=C/c3ccc(C)cc3)cc2)nnc1-c1c[nH]c2ccccc12",
    "CLASSIFICATION": 0.0
  },
  {
    "MOLECULE": "NC(N)=Nc1ccc(Oc2cccc(Nc3cccc(C(F)(F)F)c3)c2)cn1",
    "CLASSIFICATION": 1.0
  },
  {
    "MOLECULE": "CS(=O)(=O)c1ccc(-c2nn(-c3ccccc3)cc2/C=N/NC(=O)c2nc(N)n[nH]2)cc1",
    "CLASSIFICATION": 0.0
  },
  {
    "MOLECULE": "NC(=O)c1cccc(-n2ccc3cc(NC(=O)Nc4ccc(N5CCOCC5)c(C(F)(F)F)c4)ccc32)n1",
    "CLASSIFICATION": 1.0
  },
  {
    "MOLECULE": "CCCCCc1ccc(S(=O)(=O)Nc2cccc(-c3csc(NC(=O)CCCCCN4CCN(CCO)CC4)n3)c2)cc1",
    "CLASSIFICATION": 0.0
  },
  {
    "MOLECULE": "N#Cc1cccc(/C(N)=N/C(N)=N/c2nc3ccccc3s2)c1",
    "CLASSIFICATION": 1.0
  },
  {
    "MOLECULE": "CCNC(=O)Oc1ccc(/C(=C(/C)c2ccccc2)c2ccc(OCCN3CCCCCC3)cc2)cc1",
    "CLASSIFICATION": 1.0
  },
  {
    "MOLECULE": "O=C(NCc1ncc[nH]1)c1ccc(-c2nc3ccc4[nH]ncc4c3c3c2CCCC3)cc1",
    "CLASSIFICATION": 1.0
  },
  {
    "MOLECULE": "CCN1CCN(Cc2ccc(C(=O)Nc3ccc(C)c(Oc4ccc(-c5[nH]nc6ncnc(N)c56)cc4)c3)cc2C(F)(F)F)CC1",
    "CLASSIFICATION": 0.0
  },
  {
    "MOLECULE": "COc1cc(-c2nc3sccn3c2-c2ccnc(S(C)(=O)=O)n2)ccc1F",
    "CLASSIFICATION": 0.0
  },
  {
    "MOLECULE": "O=C1/C(=C/C=C/c2ccco2)SC(=S)N1C1CCCCC1",
    "CLASSIFICATION": 0.0
  },
  {
    "MOLECULE": "CC1(C)CC[C@]2(C(=O)N3CCOCC3)CC[C@]3(C)C(=CC[C@@H]4[C@@]5(C)C/C(=C/c6ccccn6)C(=O)C(C)(C)[C@@H]5CC[C@]43C)[C@@H]2C1",
    "CLASSIFICATION": 1.0
  },
  {
    "MOLECULE": "CCN(CC)c1ccc(NC2=C(Cl)C(=O)c3nc(C)ccc3C2=O)cc1",
    "CLASSIFICATION": 0.0
  },
  {
    "MOLECULE": "COc1ccc(-n2c(SCc3n[nH]c(=S)o3)nc3ccc(Cl)cc3c2=O)cc1",
    "CLASSIFICATION": 0.0
  },
  {
    "MOLECULE": "Nc1nc(-c2cccc([N+](=O)[O-])c2)c(N=Nc2ccc([N+](=O)[O-])cc2Cl)s1",
    "CLASSIFICATION": 1.0
  },
  {
    "MOLECULE": "COc1ccc(N2C(=O)c3cc(Cl)ccc3NC2SCc2ccccc2)cc1 (stereo not given)",
    "CLASSIFICATION": 0.0
  },
  {
    "MOLECULE": "COc1ccc(Oc2ccc(/C=N/NC(=O)CSc3nc4ccccc4c(=O)n3-c3ccc(Cl)cc3)cc2)cc1",
    "CLASSIFICATION": 1.0
  },
  {
    "MOLECULE": "C=C(C=O)[C@@H]1CC[C@]2(C)[C@H](CC=C3[C@H]4[C@@H](C)[C@H](C)CC[C@]4(C(=O)OC)CC[C@]32C)[C@@]1(C)CCC#N",
    "CLASSIFICATION": 1.0
  }
]
